# target.or.system: PDGF-AA (UniProt P04085 87-211)
# test.method.notes: SPR; SPR: PBS (137 mM NaCl, 2.7 mM KCl, 8 mM Na2HPO4, 2 mM KH2PO4) pH 7.4, 25 °C, protein on CM5; EMSA: 50 mM Tris-HCl, 100 mM KCl, pH 7.5, room temperature, 1 uM RNA, 15% PAGE in TBE
# condition.details: protein: commercial; chain copies: 2; label: 5' fluorescein for EMSA; none for SPR; parallel G4
pKd: −log10 of the molar value.

| binder | pKd |
| --- | --- |
| GGGGGCGGGAGCCAGAGACCAGUGGGCAGGG (structured_RNA) [VEGFA intronic G4_1] | 7.70 |
